# Test system: Mus musculus
# Test Details: Behavioral toxicity in albino Icem-CET (SPF Caw) mouse assessed as positional passivity at 25 to 800 mg/kg, po by Irwin's test
# Format: organism-based
# Design: dose 25-800 mg/kg, route oral
# Study Conditions: in vivo
Metric: Activity

Here is how some compounds turned out for Activity.
[[record]]
smiles_text = "C/C(C(=O)NC1CC1)=C(\\C)c1ccc(Cl)cc1"
observed_value = "Non-toxic"

[[record]]
smiles_text = "C=CCNC(=O)/C(C)=C(/C)c1ccc(Br)cc1"
observed_value = "Non-toxic"

[[record]]
smiles_text = "C=CCNC(=O)/C(C)=C(/C)c1ccccc1"
observed_value = "Non-toxic"

[[record]]
smiles_text = "C/C(C(=O)NC1CC1)=C(\\C)c1ccc(F)cc1"
observed_value = "Non-toxic"

[[record]]
smiles_text = "C=CCNC(=O)/C(C)=C(/C)c1ccc(OC)cc1"
observed_value = "Non-toxic"


I have this compound here, C=CCNC(=O)/C(C)=C(/C)c1ccc(C)cc1 , and I need its recorded Activity.
Non-toxic

Would you mind telling me what Activity value was observed for COc1ccc(/C(C)=C(/C)C(=O)NC2CC2)cc1 ?
Non-toxic

Returns the measured Activity for the input compound. Input: C/C(C(=O)NC1CC1)=C(\C)c1ccccc1
Non-toxic
